# TGT: delta opioid receptor (NG108-15 cell membranes) (Mus musculus)
# Construct: NG108-15 cell membranes were purchased from Applied Cell Sciences (Rockville, Md.); host or cells: NG108-15 cell membranes (purchased)
# Sequence (P32300 whole entry): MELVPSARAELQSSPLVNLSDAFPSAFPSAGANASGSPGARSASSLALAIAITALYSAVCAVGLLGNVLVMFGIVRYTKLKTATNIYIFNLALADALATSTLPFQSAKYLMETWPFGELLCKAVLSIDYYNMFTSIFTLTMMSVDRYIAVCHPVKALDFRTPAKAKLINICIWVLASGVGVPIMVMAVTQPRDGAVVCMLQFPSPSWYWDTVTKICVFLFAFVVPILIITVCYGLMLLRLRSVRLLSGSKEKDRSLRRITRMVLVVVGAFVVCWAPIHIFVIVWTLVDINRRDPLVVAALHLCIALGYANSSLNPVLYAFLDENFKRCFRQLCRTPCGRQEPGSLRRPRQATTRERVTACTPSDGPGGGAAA
# EXPERIMENT_SUMMARY: [35S]GTPγS binding assay in NG108-15 cell membranes (delta opioid)
# Format: biochemical
# COND: delta GTPγS binding EC50 (nM)
ASSAY_ENDPOINT: log10(EC50) (log10 of the value in nM)
Note the log scale: values are log10 of EC50 expressed in nM.

| COMPOUND | TGT | ASSAY_ENDPOINT | RECORDED_MEASUREMENT |
| --- | --- | --- | --- |
| NC(=O)c1cccc2c1Oc1ccccc1C2=C1CC2CCC(C1)N2 (single isomer, unassigned) [Cpd 39] | delta opioid receptor (NG108-15 cell membranes) (Mus musculus) | log10(EC50) | 3.09 |

Field: log10(EC50). Fill in for each record below.
1. O=CNc1cccc2c1Oc1ccccc1C2=C1CC2CCC(C1)N2 [Cpd 44]
2. NC(=O)c1cccc2c1Sc1ccccc1C2=C1CC2CCC(C1)N2 [Cpd 63]
3. Oc1cccc2c1Oc1ccccc1C2=C1CC2CCCC(C1)N2 [Cpd 20]
4. Oc1cccc2c1Oc1ccccc1C2=C1CC2CCC(C1)N2 (single isomer, unassigned) [Cpd 8]
5. Oc1cccc2c1Oc1ccccc1C2=C1CC2CCC(C1)N2 (racemic) [Cpd 2]
6. Oc1cccc2c1Oc1ccccc1C2=C1CCNCC1 [Cpd 16, 9-Piperidin-4-ylidene-9H-xanthen-4-ol]
7. CN1C2CCC1CC(=C1c3ccccc3Oc3c(O)cccc31)C2 (single isomer, unassigned) [Cpd 51]
8. O=C(NCc1ccccc1)c1cccc2c1Oc1ccccc1C2=C1CC2CCC(C1)N2 [Cpd 13]

Completion:
1. 0.85
2. 0.43
3. 2.26
4. 1.00
5. 1.71
6. 2.98
7. 1.77
8. 0.75

Prompt: Query (compound): O=C(Nc1ccccc1)c1cccc2c1Oc1ccccc1C2=C1CC2CCC(C1)N2 [Cpd 12] ; field requested: log10(EC50)
Completion: 1.48

---

# TGT: delta opioid receptor (Rattus norvegicus, UniProt P33533)
# Construct: the forebrains were homogenized in Tris buffer in a Teflon®-glass homogenizer; from tissue; host or cells: forebrain of male Wistar rats (particulate membrane preparation)
# Sequence (P33533 whole entry): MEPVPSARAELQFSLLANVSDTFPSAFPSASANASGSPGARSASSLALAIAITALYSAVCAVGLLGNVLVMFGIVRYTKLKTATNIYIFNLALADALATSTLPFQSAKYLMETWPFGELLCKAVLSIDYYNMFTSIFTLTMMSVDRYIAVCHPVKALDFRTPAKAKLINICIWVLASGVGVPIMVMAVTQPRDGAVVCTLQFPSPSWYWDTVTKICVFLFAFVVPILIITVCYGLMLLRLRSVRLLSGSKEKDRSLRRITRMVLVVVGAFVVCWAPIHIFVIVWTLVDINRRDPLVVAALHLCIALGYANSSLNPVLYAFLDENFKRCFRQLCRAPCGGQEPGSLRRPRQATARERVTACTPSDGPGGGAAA
# EXPERIMENT_SUMMARY: Rat brain delta opioid receptor binding assay
# COND: rDOR (Ki, nM): Rat delta opioid receptor binding constant, rat forebrain membranes; [3H]DPDPE or [3H]naltrindole, 25° C., 2.5 h
ASSAY_ENDPOINT: log10 Ki (log10 of the value in nM)
Note the log scale: values are log10 of Ki expressed in nM.

| COMPOUND | log10 Ki |
| --- | --- |
| Oc1cccc2c1Oc1ccccc1C2=C1CC2CCC(C1)N2 (racemic) [Cpd 2] | -0.32 |

Field: log10 Ki. Fill in for each record below.
1. O=C(NCCc1ccccc1)c1cccc2c1Oc1ccccc1C2=C1CC2CCC(C1)N2 (single isomer, unassigned) [Cpd 55]
2. Oc1cccc2c1Oc1ccccc1C2=C1CC2CCC(C1)N2Cc1cccnc1 (single isomer, unassigned) [Cpd 49]
3. CN(C)CCNC(=O)c1cccc2c1Oc1ccccc1C2=C1CC2CCC(C1)N2 [Cpd 15]
4. NC(=O)c1cccc2c1Oc1ccccc1C2=C1CC2CCC(C1)N2 (single isomer, unassigned) [Cpd 37]
5. O=C(N1C2CCC1CC(=C1c3ccccc3Oc3c(O)cccc31)C2)C(F)(F)F (single isomer, unassigned) [Cpd 5]

Completion:
[2.00, 1.80, 3.15, 0.60, 3.32]
